These measurements were taken from ChEMBL document CHEMBL1828621.

Quick list: Ratio per entry.
- Test system: HCT-116
- Assay: Cytotoxicity against human HCT116 cells assessed as cell survival at 2.5 ug/ml after 48 hrs by sulforhodamine B method relative to control
- Type: functional
Give the figure by itself; no unit, no explanation.

Examples with their reported Ratio follow.
O=S(=O)(c1ccccc1)c1cnc2ncnn2c1-c1ccc(Cl)cc1    0.377
Cc1ccc(-c2c(S(=O)(=O)c3ccccc3)cnc3cc(-c4ccccc4)nn23)cc1    0.745
O=S(=O)(c1ccccc1)c1cnc2ncnn2c1-c1ccccc1    0.302

// recorded Ratio for "Cc1nn2c(-c3ccccc3)c(S(=O)(=O)c3ccccc3)cnc2c1Br" : 0.373

Entry under test: "Cc1ccc(-c2cc3ncc(S(=O)(=O)c4ccccc4)c(-c4ccc(C)cc4)n3n2)cc1" . Its Ratio was 0.764

Reported Ratio for "COc1cccc2c1C(=O)c1c(O)c3c(c(O)c1C2=O)C[C@@](O)(C(=O)CO)C[C@@H]3O[C@H]1C[C@H](N)[C@H](O)[C@H](C)O1" was 0.439

Per the records, this compound ( "COc1ccc(-c2cc3ncc(S(=O)(=O)c4ccccc4)c(-c4ccc(Cl)cc4)n3n2)cc1" ) has Ratio equal to 0.794

What the record says about "O=S(=O)(c1ccccc1)c1cnc2nc3ccccc3n2c1-c1ccccc1" : Ratio is 0.885

Short answer for "O=S(=O)(c1ccccc1)c1cnc2nc3ccccc3n2c1-c1ccc(Cl)cc1" : Ratio was 0.905

Lookup result for "O=S(=O)(c1ccccc1)c1cnc2cc(-c3ccccc3)nn2c1-c1ccc(Cl)cc1" ; measured Ratio: 0.953

The compound "Cc1ccc(-c2c(S(=O)(=O)c3ccccc3)cnc3cc(-c4ccc(Cl)cc4)nn23)cc1" showed Ratio equal to 0.665

For reference, reported Ratio for "O=S(=O)(c1ccccc1)c1cnc2c(Br)c(-c3ccccc3)nn2c1-c1ccccc1" stands at 0.42

Entry under test: "O=S(=O)(c1ccccc1)c1cnc2cc(-c3ccc(Cl)cc3)nn2c1-c1ccccc1" . Its Ratio was 0.508

Ratio reported for this compound "O=S(=O)(c1ccccc1)c1cnc2nc3ccccc3n2c1-c1ccc(Br)cc1" : 0.748

Ratio recorded for this compound, "COc1ccc(-c2cc3ncc(S(=O)(=O)c4ccccc4)c(-c4ccccc4)n3n2)cc1" , is 0.436

---

- Test system: HCT-116
- Assay: Cytotoxicity against human HCT116 cells assessed as cell survival at 5 ug/ml after 48 hrs by sulforhodamine B method relative to control
- Format: functional
Quantity name: Ratio
Form: value (number only, do not type unit).

Lookup result for "COc1cccc2c1C(=O)c1c(O)c3c(c(O)c1C2=O)C[C@@](O)(C(=O)CO)C[C@@H]3O[C@H]1C[C@H](N)[C@H](O)[C@H](C)O1" ; measured Ratio: 0.42

The compound "O=S(=O)(c1ccccc1)c1cnc2nc3ccccc3n2c1-c1ccc(Br)cc1" showed Ratio equal to 0.624

For this compound ( "O=S(=O)(c1ccccc1)c1cnc2ncnn2c1-c1ccc(Cl)cc1" ), measured Ratio is 0.316

The reported value for "Cc1ccc(-c2c(S(=O)(=O)c3ccccc3)cnc3cc(-c4ccc(Cl)cc4)nn23)cc1" in terms of Ratio is 0.382

So, "O=S(=O)(c1ccccc1)c1cnc2cc(-c3ccc(Cl)cc3)nn2c1-c1ccccc1" ? Its Ratio was 0.42

Lab note: measured Ratio of "Cc1nn2c(-c3ccccc3)c(S(=O)(=O)c3ccccc3)cnc2c1Br" was 0.253

Looking up "O=S(=O)(c1ccccc1)c1cnc2cc(-c3ccccc3)nn2c1-c1ccc(Cl)cc1" , I see its Ratio listed as 0.894

Reported Ratio of "O=S(=O)(c1ccccc1)c1cnc2nc3ccccc3n2c1-c1ccccc1" : 0.845

Reported Ratio for "O=S(=O)(c1ccccc1)c1cnc2cc(-c3ccccc3)nn2c1-c1ccccc1" was 0.43

Ratio in this record for "O=S(=O)(c1ccccc1)c1cnc2ncnn2c1-c1ccccc1" : 0.294

Form: compound = "O=S(=O)(c1ccccc1)c1cnc2nc3ccccc3n2c1-c1ccc(Cl)cc1" ; Ratio = 0.889

// Ratio lookup, compound = "Cc1ccc(-c2c(S(=O)(=O)c3ccccc3)cnc3cc(-c4ccccc4)nn23)cc1" , result: 0.701

Ratio for "COc1ccc(-c2cc3ncc(S(=O)(=O)c4ccccc4)c(-c4ccccc4)n3n2)cc1" is 0.288

---

- Tested on: HCT-116
- Assay: Cytotoxicity against human HCT116 cells assessed as cell survival at 2.5 ug/ml after 48 hrs by sulforhodamine B method relative to control
- Format: functional
Entries and their Ratio values follow.
Lab note: jot down the number only; don't add units.

Measured Ratio (HCT-116), entry "Cc1cc2ncc(S(=O)(=O)c3ccccc3)c(-c3ccccc3)n2n1" : 0.698

Observed Ratio on HCT-116, entry "Cc1ccc(-c2c(S(=O)(=O)c3ccccc3)cnc3c(Br)c(-c4ccccc4)nn23)cc1" , equals 0.701

Reported Ratio (HCT-116) for entry "O=S(=O)(c1ccccc1)c1cnc2cc(-c3ccccc3)nn2c1-c1ccccc1" is 0.455
